Run description: Intrinsic clearance in human liver microsomes assessed per mg of protein
Format: ADME, Microsome
Condition: read-out: CLH
Readout type: microsomal CLint (µL/min/mg)
Answers are plain numbers, in µL/min/mg.

Inquiry: Requested field: microsomal CLint. Item: N#C/C(=C\c1cn(CC(=O)O)c2ccccc12)C(=O)N1CCCc2ccccc21
Reply text: 6

###

Assayed system: Cytochrome P450 2C9 (Homo sapiens, UniProt P11712)
Sequence (P11712 whole entry): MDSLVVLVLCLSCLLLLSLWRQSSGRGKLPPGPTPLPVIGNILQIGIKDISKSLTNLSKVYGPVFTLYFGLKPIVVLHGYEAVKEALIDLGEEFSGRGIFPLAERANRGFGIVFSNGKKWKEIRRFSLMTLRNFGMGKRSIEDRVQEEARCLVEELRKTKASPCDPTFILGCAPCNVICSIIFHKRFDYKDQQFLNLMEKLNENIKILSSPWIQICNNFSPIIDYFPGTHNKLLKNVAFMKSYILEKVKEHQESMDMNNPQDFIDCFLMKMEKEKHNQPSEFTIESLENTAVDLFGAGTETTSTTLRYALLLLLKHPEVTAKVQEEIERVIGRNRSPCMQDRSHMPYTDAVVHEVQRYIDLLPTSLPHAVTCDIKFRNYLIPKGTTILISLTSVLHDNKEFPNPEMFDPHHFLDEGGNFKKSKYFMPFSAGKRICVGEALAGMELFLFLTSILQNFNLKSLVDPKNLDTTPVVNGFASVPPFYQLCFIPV
Readout type: IC50

Inquiry: Recorded IC50 for O=C(O)Cn1c2c(c3ccccc31)CN(C(=O)c1ccccc1)CC2 with Cytochrome P450 2C9 (Homo sapiens, UniProt P11712), please?
Reply text: > 15 µM
